ULK2 PTS (ºC) listing for selected molecules.
Target: kinase domain of ULK2 (Homo sapiens, UniProt Q8IYT8)
Sequence (Q8IYT8 1-276 limits assumed): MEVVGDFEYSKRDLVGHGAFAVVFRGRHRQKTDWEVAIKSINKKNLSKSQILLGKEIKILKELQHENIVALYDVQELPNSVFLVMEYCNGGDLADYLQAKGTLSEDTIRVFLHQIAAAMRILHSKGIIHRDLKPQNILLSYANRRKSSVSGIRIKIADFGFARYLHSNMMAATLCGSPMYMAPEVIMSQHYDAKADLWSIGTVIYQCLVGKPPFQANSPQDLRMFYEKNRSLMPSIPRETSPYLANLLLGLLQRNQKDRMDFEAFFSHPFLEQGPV
Conditions: binder
Express it in °C; write the number only.

Answered cases to consult:
| molecule | recorded_number |
| --- | --- |
| CNC(=O)c1ccccc1Nc1nc(Nc2cc3c(cc2C)OCO3)ncc1Cl [6i] | 2.45 |
| CNC(=O)c1ccccc1Nc1nc(Nc2ccc3[nH]ccc3c2)ncc1Br [6h] | 7.49 |
| CNC(=O)c1ccccc1Nc1nc(Nc2cc(N3CCOCC3)cc(N3CCOCC3)c2)ncc1Cl [6s] | 11.50 |
| CNC(=O)c1ccccc1Nc1nc(Nc2ccc3c(c2)CC(=O)N3)ncc1Cl [6f] | 0.48 |
| CNC(=O)c1ccccc1Nc1nc(Nc2ccc(N3CCOCC3)cc2OC)ncc1Cl [6a] | 2.31 |

Data request: // ULK2 PTS (ºC) lookup, key: CNC(=O)c1ccccc1Nc1nc(Nc2cc(OC)c(OC)c(OC)c2)ncc1C(F)(F)F [6p]
Data returned: 15.81

Data request: Check CNC(=O)c1ccccc1Nc1nc(Nc2ccc3c(c2)OCCO3)ncc1Cl [6j] too.
Data returned: 4.43
